The measurements presented in this section are drawn from patent US5807688A.

System: catalytic monoclonal antibody DF8-D5 (IgG1), elicited to phosphonamidate ester hapten (7.2), hybridoma ECACC 96042612
Format: biochemical, mouse
APPLIED CONDITIONS: pH 6.5
kcat/kun listing for selected compounds.
RESULT TYPE: kcat/kun

>>> reading("COc1ccc(OC(=O)Nc2cc(C(=O)O)cc(C(=O)O)c2)cc1")
"1.2 E6"
>>> reading("O=C(Nc1cc(C(=O)O)cc(C(=O)O)c1)Oc1ccc([N+](=O)[O-])cc1")
300
>>> reading("O=C(Nc1cc(C(=O)O)cc(C(=O)O)c1)Oc1ccc(Br)cc1")
"1 E5"
>>> reading("O=C(Nc1cc(C(=O)O)cc(C(=O)O)c1)Oc1ccc(F)cc1")
"4 E5"

----------
Tested on: monoclonal antibody EA11-D7
Assay type: binding, mouse
APPLIED CONDITIONS: read-out: I50
RESULT TYPE: IC50

>>> reading("CCOP(=O)(O)Cc1ccc([N+](=O)[O-])cc1")
"30 nM"

----------
Test system: catalytic monoclonal antibody DF8-D5 (IgG1), elicited to phosphonamidate ester hapten (7.2), hybridoma ECACC 96042612
Assay type: biochemical, mouse
APPLIED CONDITIONS: pH 6.5
RESULT TYPE: kcat/Km

>>> reading("O=C(Nc1cc(C(=O)O)cc(C(=O)O)c1)Oc1ccc(F)cc1")
"0.17 E6"
>>> reading("O=C(Nc1cc(C(=O)O)cc(C(=O)O)c1)Oc1ccc(Br)cc1")
"0.075 E6"
>>> reading("O=C(Nc1cc(C(=O)O)cc(C(=O)O)c1)Oc1ccc([N+](=O)[O-])cc1")
"0.15 E6"
>>> reading("COc1ccc(OC(=O)Nc2cc(C(=O)O)cc(C(=O)O)c2)cc1")
"0.08 E6"

----------
MEASUREMENT TARGET: monoclonal antibody EA11-D7 (IgG1), Appendix line 32, elicited to TSA (7.2)
pKd: −log10 of the molar value.
RESULT TYPE: pKd

>>> reading("CCOP(=O)(Cc1ccc(NC(=O)CCCC(=O)O)cc1)Nc1cc(C(=O)O)cc(C(=O)O)c1 (stereo not shown) [7.6]")
"> 8.40"

----------
Km listing for selected compounds.
System: catalytic monoclonal antibody DF8-D5 (IgG1), elicited to phosphonamidate ester hapten (7.2), hybridoma ECACC 96042612
Format: biochemical, mouse
APPLIED CONDITIONS: pH 6.5
RESULT TYPE: Km (µM)

>>> reading("O=C(Nc1cc(C(=O)O)cc(C(=O)O)c1)Oc1ccc(F)cc1")
41
>>> reading("COc1ccc(OC(=O)Nc2cc(C(=O)O)cc(C(=O)O)c2)cc1")
58
>>> reading("O=C(Nc1cc(C(=O)O)cc(C(=O)O)c1)Oc1ccc([N+](=O)[O-])cc1")
120
>>> reading("O=C(Nc1cc(C(=O)O)cc(C(=O)O)c1)Oc1ccc(Br)cc1")
80

----------
Test system: catalytic monoclonal antibody DF8-D5 (IgG1), elicited to phosphonamidate ester hapten (7.2), hybridoma ECACC 96042612
Type: biochemical, mouse
APPLIED CONDITIONS: pH 6.5
RESULT TYPE: kcat (s⁻¹)

>>> reading("COc1ccc(OC(=O)Nc2cc(C(=O)O)cc(C(=O)O)c2)cc1")
0.0817
>>> reading("O=C(Nc1cc(C(=O)O)cc(C(=O)O)c1)Oc1ccc(Br)cc1")
0.1
>>> reading("O=C(Nc1cc(C(=O)O)cc(C(=O)O)c1)Oc1ccc(F)cc1")
0.12
>>> reading("O=C(Nc1cc(C(=O)O)cc(C(=O)O)c1)Oc1ccc([N+](=O)[O-])cc1")
0.3
